Where these numbers come from: paper PMC3643963

target: Ervatamin-C (Erv-C) (Tabernaemontana divaricata, UniProt A8DS38, A200Y/S165T); test: residual activity, pNA release at […] nm; conditions: read-out: IC50 against E-64
Sequence (A8DS38 134-341 S165T/A200Y): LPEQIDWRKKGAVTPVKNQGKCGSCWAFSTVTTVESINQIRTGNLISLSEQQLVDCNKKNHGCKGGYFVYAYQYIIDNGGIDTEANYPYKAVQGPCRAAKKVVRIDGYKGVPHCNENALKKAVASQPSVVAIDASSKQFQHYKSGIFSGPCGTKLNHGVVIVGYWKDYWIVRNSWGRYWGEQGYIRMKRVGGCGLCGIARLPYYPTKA
propertyMeasured: IC50 (nM)
Respond numerically; units are nM and should not be typed.

Given the compound CC(C)C[C@H](NC(=O)[C@H]1O[C@@H]1C(=O)O)C(=O)NCCCCN=C(N)N [E-64] and test system Ervatamin-C (Erv-C) (Tabernaemontana divaricata, UniProt A8DS38, A200Y/S165T), the measured IC50 is 171

----------
biological target: Ervatamin-C (Erv-C) (Tabernaemontana divaricata, UniProt A8DS38, A200Y); experiment: residual activity, pNA release at […] nm; conditions: read-out: IC50 against E-64
Sequence (A8DS38 134-341 A200Y): as the sequence (A8DS38 134-341 S165T/A200Y) above, with T32S counted along it
propertyMeasured: pIC50
# pIC50: negative log10 of molar concentration; output just the value

Reported pIC50 ( CC(C)C[C@H](NC(=O)[C@H]1O[C@@H]1C(=O)O)C(=O)NCCCCN=C(N)N ) = 6.60

----------
target: Ervatamin-C (Erv-C) (Tabernaemontana divaricata)
propertyMeasured: IC50
Remember to put the unit after the number in your answer.

Given the compound CC(C)C[C@H](NC(=O)[C@H]1O[C@@H]1C(=O)O)C(=O)NCCCCN=C(N)N and test system Ervatamin-C (Erv-C) (Tabernaemontana divaricata), the measured IC50 is 0.349 µM
